Header: pIC50 / Vascular endothelial growth factor receptor 2 (Homo sapiens) / multiple publications
pIC50: −log10 of the molar value.

{"compound": "OC(COc1ncnc2ccccc12)CN1CCN(c2cccc(C(F)(F)F)c2)CC1 (centres undefined)", "readout relation": "=", "pIC50": 8.30}
{"compound": "OC(COc1ncnc2ccccc12)CN1CCN(Cc2ccccc2)CC1 (centres undefined)", "readout relation": "=", "pIC50": 7.28}
{"compound": "Cc1nc(Nc2cc(CCc3ccc(F)c(NC(=O)c4cccc(C(F)(F)F)c4)c3)n[nH]2)cc(N2CCN(CCO)CC2)n1", "readout relation": ">", "pIC50": 8.00}
{"compound": "O=C(Nc1ccc(Nc2cnc3cc([N+](=O)[O-])ccc3n2)cc1)Nc1cccc(Cl)c1", "readout relation": "=", "pIC50": 4.07}

---

Published IC50 for Vascular endothelial growth factor receptor 2 (Homo sapiens, UniProt P35968), assembled from different documents, is shown next.
We'd kindly ask you to apply these IC50 classes: class 1 = under 60 nM, class 2 = from 60 nM up to 200 nM, class 3 = 200 nM and over

{"compound": "OC(COc1ncnc2ccccc12)CN1CCN(c2ccccc2Cl)CC1 (stereo unspecified)", "label": "class 1"}
{"compound": "COC(=O)c1ccc2c(c1)NC(=O)C2C(=NC1CCN(C)CC1)c1ccccc1 (stereo unspecified)", "label": "class 3"}
{"compound": "CCOc1ccn(-c2ccc(F)cc2)c(=O)c1C(=O)Nc1ccc(Oc2ccnc3cc(OCCCCCCN(C)C)c4c(c23)OCCO4)c(F)c1", "label": "class 1"}
{"compound": "O=C1Nc2ccc(S(=O)(=O)O)cc2C1=C1Nc2ccccc2C1=O", "label": "class 3"}
{"compound": "CCN1CCN(c2cc(Nc3cc(CCc4cc(NC(=O)c5cccc(C(F)(F)F)c5)ccc4F)n[nH]3)nc(C)n2)CC1", "label": "class 1"}
{"compound": "COc1ccc2c(c1)CCc1c-2c2c(c3c4ccccc4n(CCO)c13)CNC2=O", "label": "class 3"}
{"compound": "COc1cc2c(Oc3ccc(NC(=O)C4(C(=O)Nc5ccc(F)cc5)CC4)cc3F)ccnc2cc1OCCCNCCCSC(C)=O", "label": "class 1"}
{"compound": "Cc1c(C(=O)Nc2ccc(Oc3ccnc(-c4nncn4CCCN4CCN(C)CC4)c3)c(F)c2)c(=O)n(-c2ccccc2)n1C", "label": "class 2"}
{"compound": "CC1=C(CC(=O)O)c2cc(F)ccc2/C1=C\\c1ccoc1", "label": "class 3"}
{"compound": "CCN1CCN(c2cc(Nc3cc(CCc4ccc(F)c(NC(=O)c5cccc(C(F)(F)F)c5)c4)n[nH]3)nc(C)n2)CC1", "label": "class 1"}
{"compound": "Nc1ncnc2occ(-c3ccc(NC(=O)Nc4cc(C(F)(F)F)cc(C(F)(F)F)c4)cc3)c12", "label": "class 2"}
{"compound": "Cc1cn(CC(O)COc2ncnc3ccccc23)cn1 (stereo unspecified)", "label": "class 2"}
{"compound": "COc1cccc(N2CCN(CC(O)COc3ncnc4ccccc34)CC2)c1 (stereo unspecified)", "label": "class 1"}
{"compound": "Cc1c(C(=O)Nc2ccc(Oc3ccnc(-c4nncn4CCCN4CCOCC4)c3)c(F)c2)c(=O)n(-c2ccccc2)n1C", "label": "class 3"}
